Kindly state EC50 for each of the entries shown.
biological target: Human TREM2 (Homo sapiens, UniProt Q9NZC2); construct: expressed in transfected cells; assay: Human TREM2 activity: cellular phosphorylation of Syk (AlphaLISA SureFire Ultra p-SYK) in HEK293/DAP12+TREM2 stable cell line; type: cell-based; conditions: phospho-Syk AlphaLISA signal, HEK293/DAP12+TREM2 cells; concentration giving 50% of maximal response; read-out: EC50
Sequence (Q9NZC2 19-230): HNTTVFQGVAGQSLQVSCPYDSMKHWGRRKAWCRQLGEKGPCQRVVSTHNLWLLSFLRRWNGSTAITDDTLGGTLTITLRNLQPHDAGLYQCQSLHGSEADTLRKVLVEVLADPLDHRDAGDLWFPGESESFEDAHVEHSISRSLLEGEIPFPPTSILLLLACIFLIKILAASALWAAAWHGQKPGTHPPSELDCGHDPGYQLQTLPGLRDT
Sequence (O43914 22-113 partner): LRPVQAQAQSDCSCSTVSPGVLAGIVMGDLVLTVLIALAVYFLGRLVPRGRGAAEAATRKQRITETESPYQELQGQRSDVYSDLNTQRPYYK

Consider the compound shown here: Cc1nc2c(-c3ccc(Cl)cc3F)nc(N3CCO[C@@H](c4cnn(C5CC5)c4)C3)nc2c(=O)n1C (single isomer, unassigned) [Example 26B] What is its recorded EC50?
1 to 10 nM

Would you kindly repeat that for Cc1nc2c(-c3ccc(Cl)cc3F)nc(N3CCO[C@H](c4cnn(C(F)(F)F)c4)C3)nc2c(=O)n1C (single isomer, unassigned) [Example 107A] ?
10 to 100 nM

Next: Cc1cc([C@@H]2CN(c3cc4c(=O)n(C)c(C)nc4c(-c4ccc(F)cc4F)n3)CC(C)(C)O2)ccn1 (single isomer, unassigned) [Example 159A]
1 to 10 nM

What about this compound? Cc1nc2c(C34CC(C(F)(F)F)(C3)C4)nc(N3CCO[C@@H](c4cnn(C)c4)C3)nc2c(=O)n1C [Example 113]
1 to 10 nM

Moving on to Cc1nc2c(-c3ccc(Cl)cc3F)nc([C@@H]3CCO[C@H](c4cnn(C5CC5)c4)C3)nc2c(=O)n1C (single isomer, unassigned) [Example 24A]
1 to 10 nM

Same question for Cc1nc2c(-c3ccc(Cl)cc3F)nc(N3CC(c4cnn(C)c4)OC4(CC4)C3)c(F)c2c(=O)n1C (stereo not shown) [Example 157] please.
100 to 1000 nM

Queued: Cc1cc(C2CN(c3nc(-c4ccc(Cl)cc4F)c4nc(C)n(C)c(=O)c4n3)CCO2)ccn1 (stereo not shown) [Example 3]
1 to 10 nM

Cc1nc2c(-c3ccc(F)c(F)c3)nc(N3CCOC(c4cnn(C)c4)C3)nc2c(=O)n1C (stereo not shown) [Example 9] ?
100 to 1000 nM

Cc1nc2c(-c3ccc(Cl)cc3F)nc(N3CCO[C@@H](c4cnn(C(F)(F)F)c4)C3)nc2c(=O)n1C (single isomer, unassigned) [Example 107B] ?
100 to 1000 nM

One more compound: Cc1nc2c(-c3ccc(Cl)cc3F)nc([C@]34CCO[C@H](c5cnn(C6CC6)c5)[C@H]3C4)nc2c(=O)n1C (single isomer, unassigned) [Example 116A]
100 to 1000 nM

Consider next the compound Cc1nc2c(-c3ccc(Cl)cc3F)nc(N3C[C@H](c4cnn(C)c4)OC4(CC4)C3)nc2c(=O)n1C (single isomer, unassigned) [Example 108B] in the same way.
100 to 1000 nM

Next compound up: Cc1cc([C@@H]2C[C@H](c3cc4c(=O)n(C)c(C)nc4c(-c4ccc(C(F)(F)F)cc4F)n3)CCO2)ccn1 (single isomer, unassigned) [Example 168A]
100 to 1000 nM

Would you mind doing Cc1n[nH]c(C2CN(c3nc(-c4ccc(Cl)cc4F)c4nc(C)n(C)c(=O)c4n3)CCO2)n1 (stereo not shown) [Example 46] as well?
100 to 1000 nM
